Molecular target: 3-hydroxyacyl-CoA dehydrogenase type-2 (Homo sapiens)
Assay: qHTS Assay for Inhibitors of HADH2 (Hydroxyacyl-Coenzyme A Dehydrogenase, Type II); note: nearly all actives have a fitted effect of over 60% in size; note: potency is the fitted concentration of half-maximal effect
Conditions: recombinant HADH2, NADH fluorescence, beta-hydroxybutyryl-CoA; series mostly up to 57.1 µM
Procedure: Assay Overview: NIH Molecular Libraries Screening Centers Network [MLSCN] NIH Chemical Genomics Center [NCGC] Structural Genomics Consortium [SGC] […] An increase in the fluorescence intensity due to conversion of NAD+ to NADH was used to measure the enzyme activity. Assay Protocol: Buffer: 100 mM Tris-HCl pH 9.0, containing 0.01 % Tween-20. […] The fluorescence intensity difference between the last and the first time points was used to compute reaction progress.
Hit rate of the full screen: of about 73,000 compounds, about 2,500 (3.4%) were called active. Another 7% or so got no clear call; they are omitted. The list comes from a sample in which actives are over-represented; it also holds close analogues and randomly drawn compounds.
ENDPOINT LABEL: Potency

For orientation, consider the following solved cases.
>  <COMPOUND>
Fc1ccc(-c2ccc(-c3nn4c(-c5ccco5)nnc4s3)o2)cc1

>  <MEASURED VALUE>
inactive

$$$$
>  <COMPOUND>
Cc1ccnc(N)c1

>  <MEASURED VALUE>
inactive

$$$$
>  <COMPOUND>
C[C@]12C=CC(=O)C=C1CC[C@@H]1[C@@H]2C(=O)C[C@@]2(C)[C@H]1CC[C@]2(O)C(=O)CO

>  <MEASURED VALUE>
inactive

$$$$
>  <COMPOUND>
O=C(O)C1=CCCN(CCON=C(c2ccccc2)c2ccccc2)C1

>  <MEASURED VALUE>
inactive

$$$$
>  <COMPOUND>
Fc1ccc(-c2nnc(CSc3nnc(-c4ccc5c(c4)OCO5)o3)o2)cc1

>  <MEASURED VALUE>
inactive

$$$$
>  <COMPOUND>
CCN(Cc1ccncc1)C(=O)[C@@H](CO)c1ccccc1

>  <MEASURED VALUE>
inactive

$$$$

Recall the recorded Potency for COCCn1c(=O)c(C)nc2cnc(N(C)C)nc21 with 3-hydroxyacyl-CoA dehydrogenase type-2 (Homo sapiens) and state it.
inactive

Recall the recorded Potency for O=C(c1ccncc1)N1CCC2(CCN(Cc3cc(C(F)(F)F)cc(C(F)(F)F)c3)CC2)CC1 with 3-hydroxyacyl-CoA dehydrogenase type-2 (Homo sapiens) and state it.
inactive

Recall the recorded Potency for CCCc1[nH]nc2c1C(C1CC=CCC1)C(C#N)=C(N)O2 (stereo unspecified) with 3-hydroxyacyl-CoA dehydrogenase type-2 (Homo sapiens) and state it.
inactive

Recall the recorded Potency for Fc1ccc(-c2nnc3sc(-c4ccc5c(c4)OCO5)nn23)cc1 with 3-hydroxyacyl-CoA dehydrogenase type-2 (Homo sapiens) and state it.
25.1 µM (active)

Recall the recorded Potency for CCN1C(=O)/C(=C2/Sc3ccccc3N2CCCS(=O)(=O)O)SC1=S with 3-hydroxyacyl-CoA dehydrogenase type-2 (Homo sapiens) and state it.
20 µM (active)
